Assay: Cytotoxicity against african green monkey Vero C1008 cells assessed as cell viability at 62.5 ug/ml after 72 hrs by MTT assay
Format: cell-based
Conditions: chlorocebus sabaeus, read-out: Activity
Reported endpoint: viability at 72 h, 62.5 ug/ml (%)
Provide only the numeric value, understood in %.

The reported value for NNC(=O)c1ccncc1 in terms of viability at 72 h, 62.5 ug/ml is 98.5

###

Assay: Cytotoxicity against african green monkey Vero C1008 cells after 72 hrs by MTT assay
Assay type: cell-based
Details: chlorocebus sabaeus
Reported endpoint: CC50 at 72 h (mM)
Express it in mM; write the number only.

# CC50 at 72 h (compound: NNC(=O)c1ccncc1 ) is 5.83

###

Assay: Cytotoxicity against african green monkey Vero C1008 cells assessed as cell viability at 2000 ug/ml after 72 hrs by MTT assay
Assay type: cell-based
Settings: chlorocebus sabaeus, read-out: Activity
Reported endpoint: viability at 72 h, 2000 ug/ml (%)
Report the value in % with no unit label.

// viability at 72 h, 2000 ug/ml value for NNC(=O)c1ccncc1 : 23.1

###

Experiment: Cytotoxicity against african green monkey Vero C1008 cells assessed as cell viability at 1000 ug/ml after 72 hrs by MTT assay
Assay type: cell-based
Conditions: chlorocebus sabaeus, read-out: Activity
Reported endpoint: viability at 72 h, 1000 ug/ml (%)
Only the number, expressed in %, is required.

Entry under test: NNC(=O)c1ccncc1 . Its viability at 72 h, 1000 ug/ml was 31.7

###

Test system: Mycobacterium tuberculosis
Assay: Antituberculosis activity against Mycobacterium tuberculosis H37Rv after 7 days by resazurin microtiter assay
Format: functional
Conditions: 168 h
Reported endpoint: MIC (µM)
The figure you give is taken to be in µM; do not add the unit.

O=C(/C=C/c1ccccc1)Oc1ccccc1 [PHENYL CINNAMATE]
502

The measured MIC associated with O=C(O)/C=C/c1ccccc1 reads 675

Noted for NNC(=O)c1ccncc1 : its MIC reads 1.8

Lookup result for N=C(N)N/N=C/c1ccc(O)cc1 ; measured MIC: 1120
